experiment.summary: Pharmacokinetics of Compounds 27, 40, 22 and 41 in ICR mice in different modes of administration
Type: in vivo
assay.conditions: ICR, mouse, in vivo, po, 5 mg/kg
outcome.measure: AUC(0-t) (ng·h/mL)

| molecule | outcome.measure | uom | data.value |
| --- | --- | --- | --- |
| Nc1nc(NCCc2ccc(NC3COC3)cc2)nc2nc(-c3ccco3)nn12 [Compound 22] | AUC(0-t) | ng·h/mL | 3960 |

(I) Cn1nnc(-c2ccc(CCNc3nc(N)n4nc(-c5ccco5)nc4n3)cc2)n1 [Compound 40]
(II) COCCNc1ccc(CCNc2nc(N)n3nc(-c4ccco4)nc3n2)cc1 [Compound 27]
(III) CCn1nnc(-c2ccc(CCNc3nc(N)n4nc(-c5ccco5)nc4n3)cc2)n1 [Compound 41]
Prompt: Form: Sort by [AUC(0-t)] Order [ ascending ] List the labels, following the order given in the request.
Completion: III, II, I
(III: 1800 ng·h/mL, II: 3100 ng·h/mL, I: 5540 ng·h/mL)
